- test: Pharmacokinetic study, single oral administration to SD rats
- run-parameters: male, SD, rat, in vivo, po, 50 mg/kg
measured-property: Cmax

1. COc1ccc(/C=C/C(=O)C2(C(=O)/C=C/c3ccc(OC)c(OC)c3)CCC(=O)CC2)cc1OC [Compound 7] ... 298 ng/mL

====

- test: Pharmacokinetic study, single oral administration to SD rats
- run-parameters: male, SD, rat, in vivo, po, 50 mg/kg
measured-property: Tmax

1) COc1ccc(/C=C/C(=O)C2(C(=O)/C=C/c3ccc(OC)c(OC)c3)CCC(=O)CC2)cc1OC [Compound 7] ... 11.4 min

====

- System: human prostate cancer cells LNCaP
- test: Cell viability inhibition assay (CTG) on LNCaP cells in presence of DHT
- Type: cell-based
- run-parameters: Homo sapiens, 120 h, 1 nM DHT, 5 days, CTG, read-out: Inhibitory activity against human prostate cancer cell LNCaP IC50
pIC50: −log10 of the molar value. Where a name gives a salt, the structure may show the parent alone.
measured-property: pIC50

1. COc1ccc(/C=C/C(=O)C2(C(=O)/C=C/c3ccc(OC)c(OC)c3)CC=C(F)CC2)cc1OC ... 5.50
2. COc1ccc(/C=C/C(=O)C2(C(=O)/C=C/c3ccc(OC)c(OC)c3)CCC(O)CC2)cc1OC ... 6.02
3. COc1ccc(/C=C/C(=O)C2(C(=O)/C=C/c3ccc(OC)c(OC)c3)CCC(F)(F)CC2)cc1OC ... 6.21
4. COc1ccc(/C=C/C(=O)C2(C(=O)/C=C/c3ccc(OC)c(OC)c3)CCC(N3CCC(F)(F)CC3)CC2)cc1OC [Compound 18 hydrochloride] ... 6.21
5. COc1ccc(/C=C/C(=O)C2(C(=O)/C=C/c3ccc(OC)c(OC)c3)CCC(N3CCCCC3)CC2)cc1OC [Compound 19 hydrochloride] ... 6.46
6. COc1ccc(/C=C/C(=O)C2(C(=O)/C=C/c3ccc(OC)c(OC)c3)CCC(NC3CC(F)(F)C3)CC2)cc1OC [Compound 23 hydrochloride] ... 6.21
7. COc1ccc(/C=C/C(=O)C2(C(=O)/C=C/c3ccc(OC)c(OC)c3)CCC3(CC2)OCCO3)cc1OC ... 6.01

====

- test: Pharmacokinetic study, single oral administration to SD rats
- run-parameters: male, SD, rat, in vivo, po, 50 mg/kg
measured-property: half-life (h)

1) COc1ccc(/C=C/C(=O)C2(C(=O)/C=C/c3ccc(OC)c(OC)c3)CCC(=O)CC2)cc1OC ... 2.95

====

- test: Pharmacokinetic study, single oral administration to SD rats
- run-parameters: male, SD, rat, in vivo, po, 50 mg/kg
measured-property: AUC(0-t) (ng·h/mL)

1) COc1ccc(/C=C/C(=O)C2(C(=O)/C=C/c3ccc(OC)c(OC)c3)CCC(=O)CC2)cc1OC ... 460
